assay-comment: MM1S cell viability effects, profiling panel, calcein-AM fluorescence, 48 h, basal (AID 1165);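 further: viability of MM1S multiple myeloma cells under basal unstimulated conditions; test concentration not given here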
conditions: higher = more signal
Mark Condition not met for z-score values under -0.3, and Condition met for everything at or above.

{"compound": "CC(C)C(=C=CC[C@H](O)c1cccc(OCCO)c1)C[C@H](O)c1ccccn1", "classification": "Condition met"}
{"compound": "COCCOC(=O)N1C(=O)[C@@]2(c3cc(C#CCC(C(=O)OC)C(=O)OC)ccc31)[C@H](C(=O)N1CCc3cc(OC)c(OC)cc3C1)[C@H]1C(=O)O[C@H](c3ccccc3)[C@H](c3ccccc3)N1[C@@H]2c1ccccc1OCCO", "classification": "Condition not met"}
{"compound": "CCCNC(=O)[C@@]1(Sc2ccc(C)cc2)CC(=O)N(Cc2cc(C(F)(F)F)cc(C(F)(F)F)c2)[C@@H]1c1ccc(CO)cc1", "classification": "Condition met"}
{"compound": "CCOC(=O)C[C@H]1[C@H](OC(=O)c2ccccc2-c2ccccc2)[C@@H](NC(=O)CC(C)C)c2cc(OCCCO)ccc2N1C(=O)c1ccccc1", "classification": "Condition met"}
{"compound": "CCc1cccc(NC(=O)O[C@H]2[C@H](OC(=O)Nc3ccccc3-c3ccccc3)[C@H](OC(=O)Nc3ccccc3-c3ccccc3)[C@@H](OC)O[C@@H]2CO)c1", "classification": "Condition not met"}
{"compound": "CCOC(=O)C[C@H]1[C@H](OC(=O)c2cc3ccccc3oc2=O)[C@@H](NC(=O)c2ccc(-c3ccccc3)cc2)c2cc(OCCCO)ccc2N1C(=O)Cc1ccc(OC)cc1", "classification": "Condition met"}
{"compound": "O=C/C=C/c1ccc(-c2ccccc2)cc1", "classification": "Condition not met"}
{"compound": "C=C(COC)C(=O)CC[C@H](OC(C)=O)c1ccccc1OCCO", "classification": "Condition not met"}
{"compound": "CC(C)(C)OC(=O)N1[C@@H](C=C(Br)Br)COC1(C)C", "classification": "Condition met"}
{"compound": "C=CC[C@H](OC(=O)Nc1ccc(SC)cc1)c1ccc(O)c(F)c1", "classification": "Condition not met"}
{"compound": "CC[C@H]1C2=C3C(CC[C@H]4C(OCc5ccc(F)cc5C(F)(F)F)OC[C@](C)([C@@H]34)N(C(=O)OC(C)(C)C)C2)C(COC(C)=O)C1COC(C)=O (stereo not given in full)", "classification": "Condition not met"}
{"compound": "CC[C@@H](O[Si](C#C[Si](C(C)C)(C(C)C)C(C)C)(C(C)C)C(C)C)c1cn([C@H](C)c2ccccc2)nn1", "classification": "Condition met"}
{"compound": "COc1cccc(C)c1NC(=O)O[C@H]1[C@H](OC(=O)Nc2ccccc2)[C@@H](OC(=O)Nc2ccccc2)[C@@H](OC)O[C@@H]1CO", "classification": "Condition not met"}
{"compound": "COC(=O)C[C@H]1O[C@]2(C(=O)N(C)c3ccccc32)[C@@H](C)[C@@H]1[Si](C)(C)c1ccccc1", "classification": "Condition not met"}
{"compound": "COC(=O)[C@@]1(Cc2ccccc2)[C@H]2c3cc(C(=O)N(C)C)n(Cc4ccc(Cl)c(C(F)(F)F)c4)c3C[C@H]2CN1C(=O)c1ccccc1", "classification": "Condition not met"}
